- Test system: E. faecalis (ATCC 29212)
- protocol-details: Microdilution susceptibility assay (MIC)
- Type: cell-based
- reported-conditions: Enterococcus faecalis, ATCC29212
reported-metric: MIC (µg/mL)
Form entry: value (µg/mL) — number only.

# compound, assayed-system, MIC [µg/mL]
records = [
    ("Cn1cccc1C(=O)C=Cc1ccc(-c2ccc([N+](=O)[O-])cc2)o1", "E. faecalis (ATCC 29212)", 100),
    ("Cn1cccc1C(=O)C=Cc1ccc(-c2cccc(Cl)c2)o1", "E. faecalis (ATCC 29212)", 200),
    ("O=C(N[C@H](CO)[C@H](O)c1ccc([N+](=O)[O-])cc1)C(Cl)Cl [Chloramphenicol, reference compound]", "E. faecalis (ATCC 29212)", 50),
]

# evaluate next
Prompt: Item Cn1cccc1C(=O)C=Cc1ccc(-c2ccc(Cl)c(Cl)c2)o1 has what recorded MIC?
Completion: 400

These data points were gathered from paper PMC6149822.
